target: Met kinase domain (GST fusion protein) (Homo sapiens); construct: Purified GST fusion protein containing the Met kinase domain; assay: Met transphosphorylation assay (ELISA, poly(glu-tyr) substrate); assay type: biochemical; settings: read-out: Met IC50;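 also: Cell-free ELISA with plate-bound poly(Glu:Tyr 4:1) phosphorylated by GST-fused Met kinase domain plus ATP and Mn2+, phosphotyrosine detected by anti-phosphotyrosine antibody with HRP and ABTS read-out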
Sequence (P08581 1078-1345 limits assumed): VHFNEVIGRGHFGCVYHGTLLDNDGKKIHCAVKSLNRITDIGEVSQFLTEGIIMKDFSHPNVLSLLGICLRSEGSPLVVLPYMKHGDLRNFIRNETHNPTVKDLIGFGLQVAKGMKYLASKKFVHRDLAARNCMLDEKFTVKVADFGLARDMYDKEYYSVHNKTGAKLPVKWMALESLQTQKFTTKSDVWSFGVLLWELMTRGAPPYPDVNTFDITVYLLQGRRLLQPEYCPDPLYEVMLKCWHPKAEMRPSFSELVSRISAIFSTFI
property: IC50

# example entries with known answers
> print(dat)
                                   molecule                             target.entity  property   reading
1  CC(Oc1nc(-c2ccc(NC(=O)N3CC[C@H](N)C3)cc2)cnc1N)c1c(Cl)ccc(F)c1Cl (some centres unmarked) [II-191]  Met kinase domain (GST fusion protein) (Homo sapiens)      IC50      3 µM
2  Nc1ncc(-c2ccc(C(=O)N3CCC(N4CCCC4)CC3)cc2)nc1OCc1cccc(F)c1C(F)(F)F [II-127]  Met kinase domain (GST fusion protein) (Homo sapiens)      IC50  0.047 µM
3  C[C@@H]1CN(Cc2c[nH]c3ccc(-c4cnc(N)c(OCc5c(F)ccc(F)c5Cl)n4)cc23)C[C@H](C)O1 [II-65]  Met kinase domain (GST fusion protein) (Homo sapiens)      IC50    2.4 µM
4  CC(Oc1nc(-c2cccc(C(=O)NC3CCN(C)CC3)c2)cnc1N)c1c(Cl)ccc(F)c1Cl (centres unmarked) [II-132]  Met kinase domain (GST fusion protein) (Homo sapiens)      IC50   0.13 µM
5  CC(C)(C)OC(=O)n1cccc1-c1cnc(N)c(OCc2c(Cl)cccc2Cl)c1 [Example I-6]  Met kinase domain (GST fusion protein) (Homo sapiens)      IC50   > 20 µM

I have this molecule here, Nc1ncc(-c2cccc(C(=O)NCCCN3CCOCC3)c2)nc1OCc1c(F)ccc(F)c1Cl [II-52] , and I need its recorded IC50.
4.2 µM

I have this molecule here, CC(Oc1nc(-c2cncc(C(=O)NCCN3CCOCC3)c2)cnc1N)c1c(Cl)ccc(F)c1Cl (centres unmarked) [II-208] , and I need its recorded IC50.
0.038 µM

I have this molecule here, CC(Oc1nc(-c2ccc(NS(=O)(=O)CCN3CC[C@@H](O)C3)cc2)cnc1N)c1c(Cl)ccc(F)c1Cl (some centres unmarked) [II-143] , and I need its recorded IC50.
0.19 µM

----------
biological target: HGFR (Homo sapiens, UniProt P08581); construct: purchased Upstate 14-526; test: HGFR continuous-coupled spectrophotometric assay; format: biochemical; settings: Table 3, column 'Ki (μM) or I (%)': cells without % sign; read-out: Ki
Sequence (P08581 974-1390 limits assumed): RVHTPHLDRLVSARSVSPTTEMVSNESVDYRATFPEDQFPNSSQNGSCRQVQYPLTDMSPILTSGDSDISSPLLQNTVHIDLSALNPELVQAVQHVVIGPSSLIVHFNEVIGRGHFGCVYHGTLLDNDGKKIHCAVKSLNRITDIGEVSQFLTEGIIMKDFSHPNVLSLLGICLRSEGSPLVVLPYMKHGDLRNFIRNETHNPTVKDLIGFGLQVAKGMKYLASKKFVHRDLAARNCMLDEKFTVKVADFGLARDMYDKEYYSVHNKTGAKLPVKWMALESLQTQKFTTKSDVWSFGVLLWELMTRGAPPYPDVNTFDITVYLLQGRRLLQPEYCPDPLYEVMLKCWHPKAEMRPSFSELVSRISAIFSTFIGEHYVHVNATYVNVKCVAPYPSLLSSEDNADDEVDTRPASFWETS
Let's look at some molecules and their measured Ki.
I'd appreciate it if you wrote the number followed by its unit.

> print(dat)
                                   molecule  property   reading
1  COc1ccc(OC)c(-c2cnc(N)c(OC(C)c3c(Cl)ccc(F)c3Cl)c2)c1 (stereo not shown) [Example I-556]        Ki  0.575 µM

What reported Ki corresponds to CC(Oc1cc(-c2ccc3[nH]ccc3c2)cnc1N)c1c(Cl)ccc(F)c1Cl (stereo not shown) [Example I-647] on HGFR (Homo sapiens, UniProt P08581)?
0.166 µM

What reported Ki corresponds to CC(Oc1cc(-c2ccc(CN3C[C@@H](C)O[C@@H](C)C3)cc2)cnc1N)c1c(Cl)ccc(F)c1Cl (stereo partly shown) [Example I-571] on HGFR (Homo sapiens, UniProt P08581)?
0.22 µM

What reported Ki corresponds to CC(Oc1cc(-c2ccc(S(=O)(=O)N(C)C)cc2)cnc1N)c1c(Cl)ccc(F)c1Cl (stereo not shown) [Example I-610] on HGFR (Homo sapiens, UniProt P08581)?
0.069 µM

What reported Ki corresponds to CC(Oc1cc(-c2ccc(CN3C[C@@H](C)N[C@@H](C)C3)cc2)cnc1N)c1c(Cl)ccc(F)c1Cl (stereo partly shown) [Example I-549] on HGFR (Homo sapiens, UniProt P08581)?
0.095 µM

What reported Ki corresponds to CCN1CCN(C(=O)c2ccc(-c3cnc(N)c(OC(C)c4c(F)ccc(F)c4Cl)c3)cc2)CC1 (stereo not shown) [Example I-622] on HGFR (Homo sapiens, UniProt P08581)?
0.375 µM

What reported Ki corresponds to CC(Oc1cc(-c2ccc(OCCN3CCOCC3)nc2)cnc1N)c1c(Cl)ccc(F)c1Cl (stereo not shown) [Example I-636] on HGFR (Homo sapiens, UniProt P08581)?
0.109 µM
